Where do these numbers come from? They come from ChEMBL document CHEMBL5335844.

Entries annotated with measured pIC50
# subject_of_test: Cholinesterase (Equus caballus, UniProt P81908)
# Sequence (P81908 whole entry): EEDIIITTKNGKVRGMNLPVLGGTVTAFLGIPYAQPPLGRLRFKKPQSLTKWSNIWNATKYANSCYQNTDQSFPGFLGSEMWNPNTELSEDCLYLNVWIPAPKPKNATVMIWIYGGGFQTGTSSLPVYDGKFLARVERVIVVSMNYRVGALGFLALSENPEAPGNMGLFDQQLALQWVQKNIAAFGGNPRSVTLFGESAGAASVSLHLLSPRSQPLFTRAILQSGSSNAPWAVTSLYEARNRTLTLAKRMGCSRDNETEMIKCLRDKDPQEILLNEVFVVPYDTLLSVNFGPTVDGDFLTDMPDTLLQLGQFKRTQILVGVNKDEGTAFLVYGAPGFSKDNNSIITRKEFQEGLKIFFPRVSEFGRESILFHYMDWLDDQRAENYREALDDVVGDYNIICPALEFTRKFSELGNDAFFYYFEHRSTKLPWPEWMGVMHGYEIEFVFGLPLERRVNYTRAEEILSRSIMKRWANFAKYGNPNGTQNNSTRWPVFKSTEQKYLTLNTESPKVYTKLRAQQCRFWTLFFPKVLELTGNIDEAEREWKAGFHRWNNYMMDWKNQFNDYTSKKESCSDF
# experimental_details: Inhibition of equine serum BuChE using butyrylthiocholine iodide as substrate preincubated for 5 mins followed by substrate addition and measured every min for 10 mins by Ellman's method
Notebook: values listed as pIC50 are -log10 of the concentration (mol/L).

- smi: "CCN1/C(=C/C(C)=O)Sc2ccc(OC(=O)NC3CCCCC3)cc21"
  observed_result: 4.89
- smi: "CCCCCCCNC(=O)Oc1ccc2c(c1)N(Cc1cccc(Cl)c1)/C(=C/C(C)=O)S2"
  observed_result: 6.15
- smi: "CCCCCCCNC(=O)Oc1ccc2c(c1)N(Cc1ccc(Cl)cc1)/C(=C/C(C)=O)S2"
  observed_result: 6.09

// field: pIC50; key: `CCCCCCCNC(=O)Oc1ccc2c(c1)N(Cc1cccc(OC)c1)/C(=C/C(C)=O)S2` ; value = 5.66

// field: pIC50; key: `CCCCCCCNC(=O)Oc1ccc2c(c1)N(CC)/C(=C/C(C)=O)S2` ; value = 5.79

----------
Entries annotated with measured pIC50
# subject_of_test: UniProt P49759
# Sequence (P49759 whole entry): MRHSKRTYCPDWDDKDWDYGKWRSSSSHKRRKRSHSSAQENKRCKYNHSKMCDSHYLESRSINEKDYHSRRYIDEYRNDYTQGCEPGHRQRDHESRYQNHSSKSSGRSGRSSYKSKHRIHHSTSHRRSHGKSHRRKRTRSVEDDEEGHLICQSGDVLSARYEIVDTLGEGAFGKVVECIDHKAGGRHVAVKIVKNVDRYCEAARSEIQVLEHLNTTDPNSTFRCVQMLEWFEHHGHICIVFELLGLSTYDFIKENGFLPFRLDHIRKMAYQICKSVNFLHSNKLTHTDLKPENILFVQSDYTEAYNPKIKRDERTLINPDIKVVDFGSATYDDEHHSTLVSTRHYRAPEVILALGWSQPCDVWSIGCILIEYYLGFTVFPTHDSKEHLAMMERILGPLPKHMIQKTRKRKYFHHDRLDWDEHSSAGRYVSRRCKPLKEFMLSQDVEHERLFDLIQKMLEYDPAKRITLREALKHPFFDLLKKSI
# experimental_details: Inhibition of human CLK1 using ERMRPRKRQGSVRRRV as substrate incubated for 40 mins in presence of Mg/[gamma-33P]-ATP by scintillation counting method
Notebook: values listed as pIC50 are -log10 of the concentration (mol/L).

Please review the following examples before continuing.
- smi: "CC(=O)/C=C1\\Sc2ccc(O)cc2N1Cc1ccccc1"
  subject_of_test: "UniProt P49759"
  pIC50: 7.27
- smi: "CC(=O)/C=C1\\Sc2ccc(O)cc2N1Cc1cccc(Cl)c1"
  subject_of_test: "UniProt P49759"
  pIC50: 7.48
- smi: "COc1cccc(CN2/C(=C/C(C)=O)Sc3ccc(O)cc32)c1"
  subject_of_test: "UniProt P49759"
  pIC50: 7.12
- smi: "CC(=O)/C=C1\\Sc2ccc(O)cc2N1CCc1ccccc1"
  subject_of_test: "UniProt P49759"
  pIC50: 7.77
- smi: "CC(=O)/C=C1\\Sc2ccc(O)cc2N1Cc1ccc(Cl)cc1"
  subject_of_test: "UniProt P49759"
  pIC50: 7.40

Now for another entry.
Item `CC(=O)/C=C1\Sc2ccc(O)cc2N1Cc1cccc(C)c1` was tested on UniProt P49759; the reported pIC50 is 7.41

----------
# subject_of_test: Dual specificity tyrosine-phosphorylation-regulated kinase 1A (Homo sapiens)
# experimental_details: Inhibition of human DYRK1A using RRRFRPASPLRGPPK as substrate incubated for 40 mins in presence of Mg/[gamma-33P]-ATP by scintillation counting method
Entries annotated with measured pIC50
Notebook: values listed as pIC50 are -log10 of the concentration (mol/L).

- smi: "CC(=O)/C=C1\\Sc2ccc(O)cc2N1Cc1ccccc1"
  pIC50: 6.28

// field: pIC50; key: `COc1cccc(CN2/C(=C/C(C)=O)Sc3ccc(O)cc32)c1` ; value = 6.05

// field: pIC50; key: `CC(=O)/C=C1\Sc2ccc(O)cc2N1Cc1cccc(C)c1` ; value = 6.37

// field: pIC50; key: `CC(=O)/C=C1\Sc2ccc(O)cc2N1Cc1cccc(Cl)c1` ; value = 6.05

// field: pIC50; key: `CC(=O)/C=C1\Sc2ccc(O)cc2N1CCc1ccccc1` ; value = 6.97
